Target: various mutants of kinase EGFR (BaF3 cell lines stably transfected with kinase) (Homo sapiens, UniProt P00533, T790M, form not given)
Construct: other: BaF3 cells stably transfected with EGFR Δ19Del/T790M; MTS, 48 h; other: BaF3 cell line stably transfected with EGFR Δ19Del/T790M; MTS, 48
Sequence (P00533 with tags, fused parts or gaps DEL746-750/T790M, form open): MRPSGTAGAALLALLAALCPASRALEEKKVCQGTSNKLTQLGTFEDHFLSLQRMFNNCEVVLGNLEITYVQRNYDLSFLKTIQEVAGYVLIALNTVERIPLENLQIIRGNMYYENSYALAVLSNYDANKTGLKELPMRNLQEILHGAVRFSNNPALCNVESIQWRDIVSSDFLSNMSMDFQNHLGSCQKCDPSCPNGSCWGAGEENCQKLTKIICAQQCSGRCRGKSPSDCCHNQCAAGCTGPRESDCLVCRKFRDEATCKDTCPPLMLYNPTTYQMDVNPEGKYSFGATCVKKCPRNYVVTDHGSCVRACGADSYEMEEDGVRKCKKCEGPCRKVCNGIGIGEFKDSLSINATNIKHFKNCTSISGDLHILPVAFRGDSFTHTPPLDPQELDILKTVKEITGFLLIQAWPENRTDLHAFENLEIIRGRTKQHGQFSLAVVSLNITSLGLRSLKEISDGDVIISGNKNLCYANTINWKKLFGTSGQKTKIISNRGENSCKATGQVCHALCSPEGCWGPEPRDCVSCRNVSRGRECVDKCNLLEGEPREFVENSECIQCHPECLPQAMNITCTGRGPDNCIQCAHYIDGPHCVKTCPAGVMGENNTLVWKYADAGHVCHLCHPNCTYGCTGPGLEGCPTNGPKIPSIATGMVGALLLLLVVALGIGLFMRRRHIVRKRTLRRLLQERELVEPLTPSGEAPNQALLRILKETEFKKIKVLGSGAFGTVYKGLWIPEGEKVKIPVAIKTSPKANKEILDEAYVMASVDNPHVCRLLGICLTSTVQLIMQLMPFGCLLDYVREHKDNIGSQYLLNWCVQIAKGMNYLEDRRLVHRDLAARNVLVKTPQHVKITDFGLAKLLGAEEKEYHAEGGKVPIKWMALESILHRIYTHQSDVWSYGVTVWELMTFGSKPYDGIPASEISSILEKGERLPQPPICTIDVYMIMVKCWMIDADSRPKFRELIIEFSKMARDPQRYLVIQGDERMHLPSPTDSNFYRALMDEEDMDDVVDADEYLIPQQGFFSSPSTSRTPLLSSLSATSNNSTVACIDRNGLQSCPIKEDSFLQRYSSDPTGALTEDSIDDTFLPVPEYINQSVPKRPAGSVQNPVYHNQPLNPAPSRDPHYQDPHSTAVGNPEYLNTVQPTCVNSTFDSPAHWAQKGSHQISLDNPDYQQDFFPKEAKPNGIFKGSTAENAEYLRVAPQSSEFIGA
Assay: Growth inhibitory activity of compounds on BaF3 cell lines stably transfected with kinase (MTS, 48 h)
Format: cell-based
Settings: BaF3 cells stably transfected with EGFR Δ19Del/T790M, read-out: IC50, growth inhibition, Δ19Del/T790M
pIC50: −log10 of the molar value.
OBSERVATION_TYPE: pIC50

Query block: What does the data say about its pIC50? Entry: CN1CCN(S(=O)(=O)c2ccc(Nc3ncc(Br)c(Nc4ccc5nccnc5c4N(C)S(C)(=O)=O)n3)cc2)CC1
Result block: 6.30 to 7.30

Query block: What does the data say about its pIC50? Entry: Cc1cc2c(cc1Nc1ncc(Br)c(Nc3ccc4nccnc4c3N(C)S(C)(=O)=O)n1)CN(C)CC2
Result block: 6.30 to 7.30

Query block: What does the data say about its pIC50? Entry: C=Cc1cc(Nc2ncc(Br)c(Nc3ccc4nccnc4c3N(CC)S(C)(=O)=O)n2)c(OC(F)(F)F)cc1N1CCC(N2CCN(C)CC2)CC1
Result block: ≥ 7.30

Query block: What does the data say about its pIC50? Entry: CCc1cc(Nc2ncc(F)c(Nc3ccc4nccnc4c3N(C)S(C)(=O)=O)n2)c(OC)cc1N1CCC(N(C)C)CC1
Result block: 6.30 to 7.30

Query block: What does the data say about its pIC50? Entry: C=Cc1cc(Nc2ncc(C3CC3)c(Nc3ccc4nccnc4c3N(C)S(C)(=O)=O)n2)c(OC(F)(F)F)cc1N1CCC(N2CCN(C)CC2)CC1
Result block: 6.30 to 7.30

Query block: What does the data say about its pIC50? Entry: COc1cc(N2CCN(C)CC2)c(C)cc1Nc1ncc(Br)c(Nc2ccc3nccnc3c2N(C)S(C)(=O)=O)n1
Result block: ≥ 7.30

Query block: What does the data say about its pIC50? Entry: COc1cc(N2CCN(C)CC2)c(C)cc1Nc1ncc(C(F)(F)F)c(Nc2ccc3nccnc3c2N(C)S(C)(=O)=O)n1
Result block: ≥ 7.30

Query block: What does the data say about its pIC50? Entry: CN1CCN(Cc2cccc(Nc3ncc(Br)c(Nc4ccc5nccnc5c4N(C)S(C)(=O)=O)n3)c2)CC1
Result block: 6.30 to 7.30

Query block: What does the data say about its pIC50? Entry: CCc1cc(Nc2ncc(Cl)c(Nc3ccc4nccnc4c3N(C)S(C)(=O)=O)n2)c(OC)cc1N1CCC(N2CCN(C)CC2)CC1
Result block: ≥ 7.30

Query block: What does the data say about its pIC50? Entry: CCc1cc(Nc2ncc(Br)c(Nc3ccc4nccnc4c3N(CC)S(C)(=O)=O)n2)c(OC)cc1N1CCN(C)CC1
Result block: ≥ 7.30

Query block: What does the data say about its pIC50? Entry: CN1CCN(C2CCN(c3ccc(Nc4ncc(F)c(Nc5ccc6nccnc6c5N(C)S(C)(=O)=O)n4)c(OC(F)(F)F)c3)CC2)CC1
Result block: 5.60 to 6.30

Query block: What does the data say about its pIC50? Entry: CN(c1c(Nc2nc(Nc3ccn(C)n3)ncc2Br)ccc2nccnc12)S(C)(=O)=O
Result block: 6.30 to 7.30

Query block: What does the data say about its pIC50? Entry: COc1cc(N2CCC(N(C)C)CC2)c(C)cc1Nc1ncc(Cl)c(Nc2ccc3nccnc3c2N(C)S(=O)(=O)C(F)(F)F)n1
Result block: 5.60 to 6.30
